Tested on: CCRIS mutagenicity, Ames/micronucleus/aberration tests
METHOD: CCRIS mutagenicity studies
EXPERIMENTAL_CONDITIONS: Test System: Ames Salmonella typhimurium; Strain/Indicator: TA1535; Metabolic Activation: None; Method: Preincubation
Calls of active or inactive are those of the source. How the calls were made is not given here.
Tick one outcome: active, inactive

| SAMPLE_SMILES | DISCRETE_LABEL |
| --- | --- |
| O=[N+]([O-])c1ccc(Cl)c([N+](=O)[O-])c1 | active |

Ask: GET /call?item= Cc1cnc[nH]1 returns the recorded outcome of this test.
Result: inactive

Ask: Record request — test call for Oc1ccc(Cc2ccc(O)cc2)cc1
Result: inactive

Ask: How did this test come out for CC1=NN(c2ccccc2)C(=O)C1 ?
Result: inactive

Ask: Fill in: this test's call for Nc1c(N=Nc2ccc(S(=O)(=O)CCOS(=O)(=O)O)cc2)c(S(=O)(=O)O)cc2cc(S(=O)(=O)O)c(N=Nc3ccc(S(=O)(=O)CCOS(=O)(=O)O)cc3)c(O)c12 is ___
Result: inactive

Ask: What is the recorded call for this molecule in the test? O.O=C([O-])c1ccccn1.O=C([O-])c1ccccn1.O=C([O-])c1ccccn1.[Cr+3]
Result: inactive

Ask: Call for entry Nc1cc(Cl)nc(C(=O)O)c1Cl :
Result: inactive

Ask: Would you mind telling me which call this test gave CC(=O)CC(=O)Nc1ccccc1 ?
Result: inactive

====

System: CCRIS mutagenicity, Ames/micronucleus/aberration tests
METHOD: CCRIS mutagenicity studies
EXPERIMENTAL_CONDITIONS: Test System: AMES SALMONELLA TYPHIMURIUM; Strain/Indicator: TA1537; Metabolic Activation: RAT, LIVER, S-9, PHENOBARBITAL; Method: STANDARD PLATE
Activity calls are given as the source filed them. The rule behind the calls is not given here.
Outcome (select one): active, inactive

| SAMPLE_SMILES | DISCRETE_LABEL |
| --- | --- |
| OO | active |
| CC(=O)Nc1ccc2c(c1)Cc1ccccc1-2 | active |
| CC(=O)Nc1cc2c(cc1[N+](=O)[O-])[nH]c1ccccc12 | inactive |
| c1ccc(-c2cccnc2)nc1 | active |
| Nc1cc2[nH]c3ccccc3c2cc1[N+](=O)[O-] | active |
| Nc1ccc2[nH]c3ccccc3c2c1[N+](=O)[O-] | active |

Now consider the entry below.
Ask: I'd appreciate the recorded outcome for c1ccc(-c2cccc(-c3ccccn3)n2)nc1 from this test.
Result: inactive

====

Test system: CCRIS mutagenicity, Ames/micronucleus/aberration tests
METHOD: CCRIS mutagenicity studies
EXPERIMENTAL_CONDITIONS: End Point: IN VITRO CHROMOSOMAL ABERRATIONS; Test System: CHO-LB CELLS; Metabolic Activation: RAT, LIVER, S-9, AROCLOR 1254
Calls of active or inactive are those of the source. How the calls were made is not given here.
Hello, when you answer, please use one of the following outcomes: active, inactive

Some solved cases for reference:
| COMPOUND | DISCRETE_LABEL |
| --- | --- |
| ClC(Cl)(Cl)Cl | inactive |
| CCC#N | inactive |

Ask: Can you look up the reported call for CC(=O)c1ccncc1 for me?
Result: active

Ask: Give the logged outcome of this assay for the following compound: O=c1n(CC2CO2)c(=O)n(CC2CO2)c(=O)n1CC1CO1 (stereo not given)
Result: active

Ask: Lab log entry: O=S1(=O)CC=CC1 — outcome as called in the assay?
Result: inactive

Cited source: PubChem BioAssay AID1259407
